Measured Fold over isotype of individual entries
Target: T1, human TREM2 (human, UniProt Q9NZC2 19-230)
T1 construct: on THP-1 WT cells and M2a-like macrophages (endogenous) and on CHO or HEK293T cells overexpressing human TREM2 with DAP12; also called hTREM2
T1 sequence: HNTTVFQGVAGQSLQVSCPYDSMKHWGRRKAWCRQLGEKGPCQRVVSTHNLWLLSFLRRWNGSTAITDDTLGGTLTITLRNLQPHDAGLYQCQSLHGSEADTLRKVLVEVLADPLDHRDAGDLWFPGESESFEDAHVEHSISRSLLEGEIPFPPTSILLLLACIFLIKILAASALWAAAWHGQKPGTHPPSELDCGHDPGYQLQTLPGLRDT
Experiment: flow cytometry, M2a-like macrophages
Lab note: write values as number then unit, every time.

Some solved cases for reference:
>>> observed_value("EOS006163 (antibody, V domains shown) VH: QVQLVQSGAEVKKPGSSVKVSCKASGGTFAQYAISWVRQAPGQGLEWMGVIIPDSGTANYAQKFQGRVTITADESTSTAYMELSSLRSEDTAVYYCARTQENTIFDIWGQGTMVTVSS VL: EIVLTQSPATLSLSPGERATLSCRASQSVSSYLAWFQQKPGQAPRLLIYDASNRATGIPARFSGSGSGTDFTLTISSLEPEDFAVYYCQQDYEWPITFGGGTKVEIK")
"13 fold"
>>> observed_value("EOS006170 (antibody, V domains shown) VH: QVQLQESGPGLVKPSGTLSLTCAVSGGSISSSNWWSWVRQPPGKGLEWIGEIYHSGSTNYNPSLKSRVTISVDKSKNQFSLKLSSVTAADTAVYYCARDTKYQAGMDVWGQGTTVTVSS VL: DIQMTQSPSSLSASVGDRVTITCQASQDISNYLNWYQQKPGKAPKLLIYDASNLATGVPSRFSGSGSGTDFTFTISSLQPEDIATYYCQQYVVFPTFGGGTKVEIK")
"1.1 fold"

# next binder below
IN: Requested field: Fold over isotype. Item: EOS006166 (antibody, V domains shown) VH: EVQLVESGGGLVQPGRSLRLSCTASGFTFGDYAMSWFRQAPGKGLEWVGFIGSKAYGGTTEYTASVKGRFTISRDGSKSIAYLQMNSLKTEDTAVYYCARGKRYSYGYWHPAFDVWGQGTMVTVSS VL: DIQMTQSPSSLSASVGDRVTITCQASQDITNYLNWYQQKPGKAPKLLIYDASNLETGVPSRFSGSGSGTDFTFTISSLQPEDIATYYCQQYDSYLTFGGGTKVEIK
OUT: 5.9 fold

Sourced from patent US20250282868A1
